# Experimental Target: Y647F (Dictyostelium discoideum, UniProt P42527, Y647F)
# Construct: A-CAT: alpha-kinase domain and Thr825 autophosphorylation site of MHCK-A
# Experiment Notes: Nucleotide binding assay with fluorescent mant-ATP on purified A-CAT, carried out as previously described (ref 51); at least 3 separate experiments.
# Settings: read-out: mant-ATP Kd; SD, n = 3
Reported Endpoint: Kd (µM)
Give bare numbers, in µM.

Look up Kd: CNc1ccccc1C(=O)O[C@H]1[C@@H](O)[C@H](n2cnc3c(N)ncnc32)O[C@@H]1CO[P@@](=O)(O)O[P@](=O)(O)OP(=O)(O)O
4.3

----------
# Experimental Target: Y647A (Dictyostelium discoideum, UniProt P42527, Y647A)
# Construct: gene mhkA; A-CAT: alpha-kinase domain and Thr825 autophosphorylation site of MHCK-A
# Sequence (P42527 552-841 Y647A): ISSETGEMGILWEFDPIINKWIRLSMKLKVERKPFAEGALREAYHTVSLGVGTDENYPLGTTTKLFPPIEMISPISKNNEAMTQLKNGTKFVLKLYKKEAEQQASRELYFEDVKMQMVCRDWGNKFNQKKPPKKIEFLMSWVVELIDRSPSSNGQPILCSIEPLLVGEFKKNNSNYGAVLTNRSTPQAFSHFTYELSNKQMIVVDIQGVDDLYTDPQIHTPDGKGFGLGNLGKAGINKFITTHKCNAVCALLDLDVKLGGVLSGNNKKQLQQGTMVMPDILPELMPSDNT
# Experiment Notes: Nucleotide binding assay with fluorescent mant-ADP on purified A-CAT, carried out as previously described (ref 51); at least 3 separate experiments.
# Settings: read-out: mant-ADP Kd; SD, n = 3
Reported Endpoint: pKd
Give bare numbers, as −log10 of the molar value.

Look up pKd: CNc1ccccc1C(=O)O[C@H]1[C@@H](O)[C@H](n2cnc3c(N)ncnc32)O[C@@H]1COP(=O)(O)OP(=O)(O)O
4.52

----------
# Experimental Target: A-CAT Y647F
# Experiment Notes: mant-nucleotide binding to A-CAT Y647F
# Settings: 22 °C, 2 mM MgCl2, 1 mM dithiothreitol, 20 mM TES, pH 7.0, mean and standard deviation of at least 3 separate experiments
Reported Endpoint: pKd
One number for each entry, as −log10 of the molar value.

[
  {
    "Structure Smiles String": "CNc1ccccc1C(=O)O[C@H]1[C@@H](O)[C@H](n2cnc3c(N)ncnc32)O[C@@H]1CO[P@@](=O)(O)O[P@](=O)(O)OP(=O)(O)O",
    "pKd": 5.37
  }
]

Request: pKd, test system A-CAT Y647F, entry CNc1ccccc1C(=O)O[C@H]1[C@@H](O)[C@H](n2cnc3c(N)ncnc32)O[C@@H]1COP(=O)(O)OP(=O)(O)O
4.82

----------
# Experimental Target: A-CAT Y647A
# Experiment Notes: mant-nucleotide binding to A-CAT Y647A
# Settings: A-CAT Y647A; 22 °C, 2 mM MgCl2, 1 mM dithiothreitol, 20 mM TES, pH 7.0; mean and standard deviation of at least 3 separate experiments
Assignment: determine reported Kd for the given compounds.
Give bare numbers, in µM.

[
  {
    "Compound": "CNc1ccccc1C(=O)O[C@H]1[C@@H](O)[C@H](n2cnc3c(N)ncnc32)O[C@@H]1COP(=O)(O)OP(=O)(O)O [mant-ADP]",
    "Unit Spec": "µM",
    "Kd": 30
  }
]

Next compound, Kd to be filled in.
Look up Kd: CNc1ccccc1C(=O)O[C@H]1[C@@H](O)[C@H](n2cnc3c(N)ncnc32)O[C@@H]1CO[P@@](=O)(O)O[P@](=O)(O)OP(=O)(O)O [mant-ATP]
10
